System: EKVX
procedureText: NCI60 five-dose screen, Non-small Cell Lung Cancer
Format: cell-based
conditionInfo: Homo sapiens, Non-small Cell Lung Cancer, five-dose screen, read-out: GI50
Measured GI50 of individual entries
Give just the number in µM; leave the unit off.

>>> readoutnumber("CC[C@]12C=CCN3CC[C@@]4(c5ccc(OC)cc5N(C)[C@H]4[C@@](O)(C(=O)OC)[C@@H]1OC(=O)CCC(=O)N1CCN(Cc4ccc(C(F)(F)F)cc4)CC1)[C@@H]32 [Compound 29]")
7.59
>>> readoutnumber("CCC12C=CCN3CCC4(c5cc(NC(=O)CN6CCN(c7ccc(C(F)(F)F)cc7)CC6)c(OC)cc5N(C)C4C(O)(C(=O)OC)C1OC(C)=O)C32 (stereo not shown) [Compound 17]")
6.03
>>> readoutnumber("CC[C@]12C=CCN3CC[C@@]4(c5ccc(OC)cc5N(C)[C@H]4[C@@](O)(C(=O)OC)[C@@H]1OC(=O)CCCN1CCN(Cc4ccc(F)cc4)CC1)[C@@H]32 [Compound 24]")
12
>>> readoutnumber("CC[C@]12C=CCN3CC[C@@]4(c5ccc(OC)cc5N(C)[C@H]4[C@@](O)(C(=O)OC)[C@@H]1OC(=O)CCC(=O)N1CCN(c4ccc(C(F)(F)F)cc4)CC1)[C@@H]32 [Compound 28]")
3.63
>>> readoutnumber("CCC12C=CCN3CCC4(c5cc(NC(=O)CN6CCN(C(c7ccc(F)cc7)c7ccc(F)cc7)CC6)c(OC)cc5N(C)C4C(O)(C(=O)OC)C1OC(C)=O)C32 (stereo not shown) [Compound 20]")
4.07

Q: Quick check: GI50 of CC[C@]12C=CCN3CC[C@@]4(c5ccc(OC)cc5N(C)[C@H]4[C@@](O)(C(=O)OC)[C@@H]1OC(=O)CCCN1CCN(c4ccc(C(F)(F)F)cc4)CC1)[C@@H]32 [Compound 22] ?
A: 3.09

Q: Next compound up: CC[C@]12C=CCN3CC[C@@]4(c5ccc(OC)cc5N(C)[C@H]4[C@@](O)(C(=O)OC)[C@@H]1OC(=O)CCCN1CCN(Cc4ccc(C(F)(F)F)cc4)CC1)[C@@H]32 [Compound 23]
A: 1.7

----------
System: CCRF-CEM
procedureText: NCI60 one-dose screen (10 μM), Leukemia
Assay type: cell-based
conditionInfo: Homo sapiens, 10 μM, Leukemia, read-out: Growth percent rate
quantityKind: activity at 10 µM (%)
Give just the number in %; leave the unit off.

Below, each entry is followed by its recorded activity at 10 µM result.
>>> readoutnumber("CC[C@]12C=CCN3CC[C@@]4(c5ccc(OC)cc5N(C)[C@H]4[C@@](O)(C(=O)OC)[C@@H]1OC(=O)CCC(=O)N1CCN(Cc4ccc(C(F)(F)F)cc4)CC1)[C@@H]32 [Compound 29]")
3.8
>>> readoutnumber("CC[C@]12C=CCN3CC[C@@]4(c5ccc(OC)cc5N(C)[C@H]4[C@@](O)(C(=O)OC)[C@@H]1OC(=O)CCC(=O)N1CCN(C)CC1)[C@@H]32 [Compound 27]")
104
>>> readoutnumber("CC[C@]12C=CCN3CC[C@@]4(c5ccc(OC)cc5N(C)[C@H]4[C@@](O)(C(=O)OC)[C@@H]1OC(=O)CCC(=O)N1CCN(c4ccc(C(F)(F)F)cc4)CC1)[C@@H]32 [Compound 28]")
4.4
>>> readoutnumber("CC[C@]12C=CCN3CC[C@@]4(c5ccc(OC)cc5N(C)[C@H]4[C@@](O)(C(=O)OC)[C@@H]1OC(=O)CCCN1CCN(C(=O)c4ccco4)CC1)[C@@H]32 [Compound 26]")
103
>>> readoutnumber("CCC12C=CCN3CCC4(c5ccc(OC)cc5N(C)C4C(O)(C(=O)OC)C1OC(=O)CCCN1CCN(C)CC1)C32 (stereo not drawn) [Compound 3]")
108

Q: Quick check: activity at 10 µM of CC[C@]12C=CCN3CC[C@@]4(c5ccc(OC)cc5N(C)[C@H]4[C@@](O)(C(=O)OC)[C@@H]1OC(=O)CCCN1CCN(c4ccc(C(F)(F)F)cc4)CC1)[C@@H]32 [Compound 22] ?
A: 3.97
